Test system: Rattus norvegicus
protocol_summary: Biodistribution in uterus / blood of immature female rat after 1 hr administration of 3 micro Ci (111 kBq) in the absence of 60 microg estradiol
Format: ADME, organism-based
condition_description: in vivo
assay_endpoint: uterus-to-blood ratio of %ID/g (%)

compound_string=C[C@@H]1Cc2cc(O)c(F)cc2[C@H]2CC[C@@]3(C)[C@@H](CC[C@@]3(O)/C=C\I)[C@H]12 recorded_result=8.3

A = C[C@@H]1Cc2c(ccc(O)c2F)[C@H]2CC[C@@]3(C)[C@@H](CC[C@@]3(O)/C=C\I)[C@H]12
B = C[C@@H]1Cc2c(ccc(O)c2F)[C@H]2CC[C@@]3(C)[C@@H](CC[C@@]3(O)/C=C/I)[C@H]12
When the recorded uterus-to-blood ratio of %ID/g values are compared, which is smaller: that of A or that of B ? To answer, give the label that identifies your chosen option.
A
(A: 8.35%, B: 12.53%)

Where do these numbers come from? They come from ChEMBL document CHEMBL1126849.
